# assay_notes: basal RPMI8226 mitochondrial membrane potential changes, profiling panel, cell-based, JC-1 fluorescence, 24 h, 100 nL compound (AID 1169); also: test concentration not given here
# reported_conditions: RPMI8226 myeloma, JC-1 mitochondrial potential fluorescence, higher = more signal
Could you please report measured z-score for the items listed next?
API note: the answer field is a bare number with no unit suffix.

[ask] I am curious: what z-score value has been reported for [N-]=[N+]=NCc1ccccc1[C@@H]1OC(c2ccc(OCCCO)cc2)=N[C@]1(Cc1ccccc1)C(=O)NCC(O)CO (some centres undefined) ?
[reply] -0.596

[ask] I am curious: what z-score value has been reported for COC(=O)[C@@]1(CCS(=O)(=O)c2ccccc2)N=C(c2ccc(OCCCO)cc2)O[C@H]1c1ccccc1CN=[N+]=[N-] ?
[reply] -1.22

[ask] I am curious: what z-score value has been reported for Oc1ccc2cc[n+](Cc3sc4ccccc4c3Cl)cc2c1 ?
[reply] 0.376

[ask] I am curious: what z-score value has been reported for COc1ccc([Si](C)(C)[C@H]2[C@H](CCO)O[C@@]3(C(=O)N(Cc4ccc(N(C=O)c5ccccc5)cc4)c4ccccc43)[C@@H]2C)cc1 ?
[reply] -1.03

[ask] I am curious: what z-score value has been reported for CC(=O)NCCCC[C@@H]1NC(=O)[C@H]2C[C@@H](C(=O)NCCCCCCNC(=O)CS)[C@@H](c3ccc(O)cc3)N2C1=O ?
[reply] -0.0883

[ask] I am curious: what z-score value has been reported for NC(=O)N1C(=O)C2C(C1=O)C1C=C(c3ccc(CO)cc3)C2C(c2cccs2)N1Cc1cccc(OC(F)(F)F)c1 (centres undefined) ?
[reply] -0.85

[ask] I am curious: what z-score value has been reported for COc1cccc(-c2cccc(=O)o2)c1 ?
[reply] 0.812

[ask] I am curious: what z-score value has been reported for CO[C@H]1O[C@H](CO)[C@@H](OC(=O)Nc2ccc(C(F)(F)F)cc2)[C@H](OC(=O)Nc2ccc3c(c2)OCO3)[C@@H]1OC(=O)Nc1ccc2c(c1)OCO2 ?
[reply] -1.32

[ask] I am curious: what z-score value has been reported for C=CCOC(=O)[C@H]1[C@@H]2C(=O)O[C@@H](c3ccccc3)[C@@H](c3ccccc3)N2[C@@H](c2ccc(OCCOC(=O)[C@H]3C[C@H]4C(=O)N[C@@H](CCCCNC(C)=O)C(=O)N4[C@H]3c3cccc(OCCO)c3)cc2)[C@]12C(=O)Nc1ccccc12 ?
[reply] -0.0898

[ask] I am curious: what z-score value has been reported for C[N+](C)(C)CCCC[C@@H]1NC(=O)[C@H]2C[C@@H](C(=O)NCCCCCCNC(=O)CS)[C@@H](c3cccc(OCCO)c3)N2C1=O ?
[reply] -0.277

[ask] I am curious: what z-score value has been reported for CC(C)NC(=O)[C@@H]1c2ccccc2C(=O)N(C2Cc3ccccc3C2)[C@H]1c1ccc(CO)cc1 ?
[reply] 0.459

[ask] I am curious: what z-score value has been reported for CCOC(=O)C[C@H]1[C@H](OC(=O)c2ccc(-c3ccccc3)cc2)[C@@H](NC(=O)Cc2ccc(OC)cc2)c2cc(OCCCO)ccc2N1C(=O)c1ccccc1 ?
[reply] 0.0293

[ask] I am curious: what z-score value has been reported for COCCOC(=O)N1C(=O)[C@@]2(c3cc(C#Cc4ccc(OC)cc4)ccc31)[C@H](c1ccccc1OCCO)N1[C@H](c3ccccc3)[C@H](c3ccccc3)OC(=O)[C@H]1[C@@H]2C(=O)NC[C@H](O)c1ccccc1 ?
[reply] -0.485

[ask] I am curious: what z-score value has been reported for CCCc1cc2c(n1Cc1cc(F)cc(F)c1)C(C)C1CN(C(=O)c3ccccc3)C(C)(C(=O)OC)C21 (centres undefined) ?
[reply] -0.904

* * *

# assay_notes: PSAC antagonists in infected red cells, primary screen, cell-based, P. falciparum Indochina, OD700, 2 h (AID 1155);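 also: lysis reports solute entry through the parasite surface anion channel PSAC; channel blockers reduce lysis of infected cells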
# reported_conditions: P. falciparum Indochina infected erythrocytes, osmotic lysis OD700; higher = more signal, called active from +8 up or from −8 down
readout: z-score
API note: the answer field is a bare number with no unit suffix.

[ask] I am curious: what z-score value has been reported for CN(C)CCCC[C@@H]1NC(=O)[C@@H]2C[C@H](C(=O)NCCCCCCN)[C@H](c3cccc(OCCO)c3)N2C1=O ?
[reply] 0.198

[ask] I am curious: what z-score value has been reported for CC(C)C[C@@H]1NC(=O)[C@@H]2C[C@H](C(=O)NCc3ccc(F)cc3)[C@H](c3cccc(OCCO)c3)N2C1=O ?
[reply] 0.722

[ask] I am curious: what z-score value has been reported for NCCCCCCNC(=O)[C@@H]1C[C@@H]2C(=O)NCC(=O)N2[C@@H]1c1ccc(O)cc1 ?
[reply] 1.04

[ask] I am curious: what z-score value has been reported for COc1ccc([C@H]2OC[C@@H]3C[C@@H](Cc4ccccc4)C(=O)N32)cc1 ?
[reply] 0.0371

[ask] I am curious: what z-score value has been reported for NC(=O)NCC#Cc1ccc2c(c1)[C@]1(C(=O)N2)[C@H](C(N)=O)[C@H]2C(=O)O[C@H](c3ccccc3)[C@H](c3ccccc3)N2[C@@H]1c1ccc(O)cc1 ?
[reply] 0.436

[ask] I am curious: what z-score value has been reported for CC(C)N1C(=O)c2ccccc2[C@](C)(C(=O)NCCN2CCOCC2)[C@@H]1c1ccc(CO)cc1 ?
[reply] 0.0259

[ask] I am curious: what z-score value has been reported for CCCC#C[Si](O[C@H](CC)c1cn(Cc2cccc(Cl)c2)nn1)(C(C)C)C(C)C ?
[reply] 0.659

[ask] I am curious: what z-score value has been reported for O=C1C2C=CC(C(O)Cc3ccccc3)N(n3cnnc3)C2C(=O)N1Cc1ccccc1 (stereo not drawn) ?
[reply] 1.06

* * *

# assay_notes: P. aeruginosa biofilm formation inhibitors, primary screen, strain PAO1, LB-PBS medium, absorbance 600 nm (AID 1176); also: test concentration not given here
# reported_conditions: P. aeruginosa PAO1 growth/biofilm, A600, 12 h; higher = more signal
Note to self: class = bucket of z-score, per low bracket = under 0.2, middle bracket = from 0.2 up to 1, high bracket = 1 and over

[ask] Exam item: assign CCCC[C@@H]1C[C@H]1[C@@H](NC(=O)C(C)(C)C)c1ccc(C(F)(F)F)cc1 to the correct category.
[reply] high bracket

[ask] Exam item: assign CN1C=C(C(=O)OCCS(C)(=O)=O)C(C(=O)OCCS(C)(=O)=O)=CC(c2ccc(CO)cc2)=CC1C1CC1 (centres undefined) to the correct category.
[reply] low bracket

[ask] Exam item: assign COCCOC(=O)N1C(=O)[C@@]2(c3cc(C#CCC(C(=O)OC)C(=O)OC)ccc31)[C@H](c1ccccc1OCCO)N1[C@H](c3ccccc3)[C@H](c3ccccc3)OC(=O)[C@H]1[C@@H]2C(=O)N1CCN(c2ncccn2)CC1 to the correct category.
[reply] high bracket

[ask] Exam item: assign C=CCC(OC(C)=O)[C@@H]1[C@@H](N(Cc2ccc(-c3cccc(C(F)(F)F)c3)o2)C(=O)c2ccc(C)cc2)c2cc(OCCCO)ccc2N1C(=O)Cc1ccc2ccccc2c1 (some centres undefined) to the correct category.
[reply] low bracket

[ask] Exam item: assign CN(C)CCCCCCNC(=O)[C@H]1C[C@H]2C(=O)N3CCC[C@H]3C(=O)N2[C@H]1c1ccc(O)cc1 to the correct category.
[reply] high bracket

[ask] Exam item: assign CN(C)CCCC[C@@H]1NC(=O)[C@H]2C[C@@H](C(=O)NCCCCCCN)[C@@H](c3ccc(O)cc3)N2C1=O to the correct category.
[reply] low bracket

[ask] Exam item: assign C#C[C@H](O[Si](C#Cc1ccc(Oc2ccccc2)cc1)(C(C)C)C(C)C)c1ccccc1 to the correct category.
[reply] middle bracket

[ask] Exam item: assign COC(=O)C(CC#Cc1ccc2c(c1)[C@]1(C(=O)N2)[C@H](c2ccc(OCCO)cc2)N2[C@H](c3ccccc3)[C@H](c3ccccc3)OC(=O)[C@H]2[C@@H]1C(=O)N1CCc2cc(OC)c(OC)cc2C1)C(=O)OC to the correct category.
[reply] high bracket

[ask] Exam item: assign CC1CC/C=C\[C@H]2OC34C=CCN(C(C)(C)C)C(=O)[C@H]3N(CCO)C(=O)[C@@H]4C2C(=O)O1 (some centres undefined) to the correct category.
[reply] middle bracket

[ask] Exam item: assign CC(C)NC(=O)[C@@]1(c2ccc([N+](=O)[O-])cc2)CC(=O)N(C2CCCCC2)[C@@H]1c1ccc(CO)cc1I to the correct category.
[reply] low bracket

[ask] Exam item: assign O=C1C[C@@](C(=O)NCCN2CCOCC2)(c2ccc([N+](=O)[O-])cc2)[C@@H](c2ccc(CO)cc2)N1CC12CC3CC(CC(C3)C1)C2 to the correct category.
[reply] middle bracket

[ask] Exam item: assign [N-]=[N+]=Nc1ccccc1[C@H]1OC(c2ccc(OCCCO)cc2)=N[C@@]1(CCS(=O)(=O)c1ccccc1)C(=O)NCC(O)CO (some centres undefined) to the correct category.
[reply] middle bracket

Ref: PubChem BioAssay
